Experiment: Phase I study: plasma pharmacokinetics (UPLC-MS/MS)
Conditions: human, plasma, 960 mg, AUCtau, mean (SD), Multiple dose; Vemurafenib 960mg Total
reported-property: AUC (µg·h/mL)

>>> print(df.to_string())
                                   compound  display_unit  observed
0  CCCS(=O)(=O)Nc1ccc(F)c(C(=O)c2c[nH]c3ncc(-c4ccc(Cl)cc4)cc23)c1F [Vemurafenib, vemurafenib]       µg·h/mL       543

----------
Test: Phase I study: plasma pharmacokinetics (UPLC-MS/MS)
Settings: human, plasma, 720 mg, AUCtau, mean (SD), Single dose; Vemurafenib 720mg BID Total
reported-property: AUC (ng·h/mL)

In [3]: df
Out[3]:
                            smiles_notation  reported_property  display_unit  observed
0  CCCS(=O)(=O)Nc1ccc(F)c(C(=O)c2c[nH]c3ncc(-c4ccc(Cl)cc4)cc23)c1F                AUC       ng·h/mL     41000
